# System: DU-145 prostate
# assay.info: NCI-60 one-dose screen, 48 h (100 = growth as untreated, 0 = no growth, -100 = all killed)
# condition.parameters: 10 µM unless noted
This is part of a sample that, as a whole, favours compounds with a hit. Of some 83,000 tested, about 20% had one in any assay.
readout.kind: growth (%)
All answers are understood in %, so give the number only.

Record excerpt, results attached:
{"columns": ["molecule", "growth (%)"],
 "data": [
  ["CCNC(=O)Oc1ccc(/C(=C(/C)c2ccc(Cl)cc2)c2ccc(OCCN3CCCC3)cc2)cc1", 102],
  ["O=C1[C@@H]2Cc3c([nH]c4ccccc34)[C@H](c3c(Cl)cccc3Cl)N2C(=O)CN1C1CCN(Cc2c(F)cccc2F)CC1", 58.8]
]}

### Prompt Please look up its growth: `C=CCn1c(SCC(=O)Nc2cccc(C(=O)/C=C/c3ccc(Cl)cc3)c2)nc2ccccc2c1=O`
### Response 95.1

### Prompt Please look up its growth: `O=C1[C@@H]2Cc3c([nH]c4ccccc34)[C@H](c3c(Cl)cccc3Cl)N2C(=O)CN1C1CCN(Cc2ccccc2)CC1`
### Response 31.6

### Prompt Please look up its growth: `O=C(CCCCCCN1CC(=O)N2[C@@H](c3ccc(Cl)c(F)c3)c3[nH]c4ccccc4c3C[C@H]2C1=O)NO`
### Response 87.8

---

# Tested on: EKVX NSCLC
# assay.info: NCI-60 one-dose screen, 48 h
# condition.parameters: 10 µM unless noted
The panel holds about 83,000 compounds, 20% with a hit somewhere; the sample as a whole holds those more often. Calls of active or inactive are those of the source. Rule for the calls: active = growth percent below 10; inactive = the rest.
Please state which outcome applies, choosing from true (1) = active, false (0) = inactive

{"columns": ["molecule", "assigned.class"],
 "data": [
  ["CCN1C(=O)N(CC)C2SC(N/N=C/c3ccc(OC)cc3)=NC21 (configuration not stated)", "false (0)"],
  ["COc1ccc([C@@H]2[C@@H](O)C(=O)N2c2cc(OC)c(OC)c(OC)c2)cc1Cl", "false (0)"],
  ["c1ccc(-c2n(Cc3ccc4ccccc4c3)c3c4ccccc4c4ccccc4c3[n+]2Cc2ccc3ccccc3c2)cc1", "true (1)"],
  ["CN1C(=O)N(C)C2Nn3c(s/c(=C\\c4ccccn4)c3=O)=NC21 (configuration not stated)", "false (0)"],
  ["O=C(CCCCCCN1CC(=O)N2[C@@H](c3cccc(Br)c3)c3[nH]c4ccccc4c3C[C@H]2C1=O)NO", "false (0)"]
]}

### Prompt Record request — test call for `O=C(CSc1nnc(-c2ccc(Cl)cc2)n1-c1ccccc1)Nc1ccc(F)cc1`
### Response false (0)

### Prompt Record request — test call for `COCCOc1ccc(-c2csc(NC(=O)CN3CCN(CCO)CC3)n2)cc1NS(=O)(=O)c1cccc2c(N(C)C)cccc12`
### Response false (0)

### Prompt Record request — test call for `CCOc1c(C#N)c(Nc2ccc(S(N)(=O)=O)cc2)c(C#N)c2nnc(C)n12`
### Response false (0)

### Prompt Record request — test call for `O=S(=O)(Nc1ccc(C2CC2)cc1)c1ccc(-c2cnc(C3CC3)o2)cc1`
### Response false (0)

### Prompt Record request — test call for `COc1cc(/C=C/C(=O)c2ccc(NC(=O)COc3cccc4cccnc34)cc2)cc(OC)c1OC`
### Response false (0)

---

# System: MOLT-4 leukemia
# assay.info: NCI-60 one-dose screen, 48 h
# condition.parameters: 10 µM unless noted
Compounds without any hit were thinned out: in the full panel of roughly 83,000, 20% have a hit. The source made the active and inactive calls. How the source made its calls: active means growth percent below 10; inactive means the rest.
Please state which outcome applies, choosing from t (active), f (inactive)

Study these solved cases before continuing.
{"columns": ["molecule", "target.under.test", "assigned.class"],
 "data": [
  ["CC(=O)NC(C)(C)C(=O)N[C@@H](C)C(=O)NC(C)(C)C(=O)N[C@@H](C)C(=O)NC(C)(C)C(=O)N[C@@H](C)C(=O)N[C@@H](CCC(N)=O)C(=O)NC(C)(C)C(=O)N[C@H](C(=O)NC(C)(C)C(=O)NCC(=O)N[C@@H](CC(C)C)C(=O)NC(C)(C)C(=O)N1CCC[C@H]1C(=O)N[C@H](C(=O)NC(C)(C)C(=O)NC(C)(C)C(=O)N[C@@H](CCC(N)=O)C(=O)N[C@@H](CCC(N)=O)C(=O)N[C@H](CO)CC1CCCCC1)C(C)C)C(C)C", "MOLT-4 leukemia", "f"],
  ["O=C1[C@H]2Cc3c([nH]c4ccccc34)[C@@H](c3ccc(Cl)cc3)N2C(=O)CN1C1CCN(Cc2c(Cl)cccc2Cl)CC1", "MOLT-4 leukemia", "f"],
  ["COc1ccc(-c2cc(-c3ccc(Cl)cc3)nc3nc(N)nn23)cc1", "MOLT-4 leukemia", "f"],
  ["O=C(/C=C/Nc1ccc(S(=O)(=O)O)cc1)c1ccc(F)cc1", "MOLT-4 leukemia", "f"]
]}

### Prompt Record request — test call for `O=C1Nc2ccc(Cl)cc2/C1=C/c1ccc(OCc2ccc(F)cc2)cc1`
### Response f

### Prompt Record request — test call for `CC(=O)Nc1nc2c(s1)C1=CC[C@H]3[C@@H]4CC[C@H](C(C)=O)[C@@]4(C)CC[C@@H]3[C@@]1(C)CC2`
### Response t

### Prompt Record request — test call for Cc1ccc(C2CC(c3ccc(Nc4nc(NCCO)nc(Nc5ccc(Cl)cc5)n4)cc3)=Nc3c(N)nc(N)nc3N2)cc1 (centres undefined)
### Response t

### Prompt Record request — test call for CCC(CC)N1C(=O)/C(=c2\sc3n(c2=O)C2C(NN=3)N(CC)C(=O)N2CC)c2ccccc21 (centres undefined)
### Response f

### Prompt Record request — test call for `C(=C(\C1=NCCN1)n1cnc2ccccc21)/c1ccc2ccccc2c1`
### Response f

### Prompt Record request — test call for `C(=C(\C1=NCCN1)n1cnc2ccccc21)/c1cccc2ccccc12`
### Response f

---

# growth per entry
# System: SF-295 CNS
# assay.info: NCI-60 one-dose screen, 48 h (100 = growth as untreated, 0 = no growth, -100 = all killed)
# condition.parameters: 10 µM unless noted
This is part of a sample that, as a whole, favours compounds with a hit. Of some 83,000 tested, about 20% had one in any assay.
All answers are understood in %, so give the number only.

Record excerpt, results attached:
{"columns": ["molecule", "growth (%)"],
 "data": [
  ["CCNCCCn1c2c(c3cc(OC)c(OC)cc3c1=O)C(=O)c1cc(OC)cnc1-2", 14.8],
  ["CS(=O)(=O)c1nccc(-c2c(-c3ccc(F)c(OCc4ccccc4)c3)nc3sccn23)n1", 98.5]
]}

### Prompt Please look up its growth: O=C(COc1ccc(C2SCC(=O)N2c2ccc(F)cc2)cc1)c1ccccc1 (stereo not given)
### Response 94.5

### Prompt Please look up its growth: `O=C(Nc1cc(Cl)cc(Cl)c1)Nc1ccc2oc(=O)ccc2c1`
### Response 3.51

### Prompt Please look up its growth: CS(=O)c1nccc(-c2c(-c3ccc(F)c(OCCc4ccc(F)cc4)c3)nc3sccn23)n1 (stereo not given)
### Response 98.3

---

# System: DU-145 prostate
# assay.info: NCI-60 one-dose screen, 48 h
# condition.parameters: 10 µM unless noted
This is part of a sample that, as a whole, favours compounds with a hit. Of some 83,000 tested, about 20% had one in any assay. Calls of active or inactive are those of the source. How the source made its calls: active means growth percent below 10; inactive means the rest.
Please state which outcome applies, choosing from active, inactive

Study these solved cases before continuing.
{"columns": ["compound", "assigned.class"],
 "data": [
  ["CCOC(=O)c1c(Nc2ccccc2)nn2c(-c3ccc(Br)cc3)ccnc12", "inactive"],
  ["Oc1ccc(CSc2nnc(-c3ccc(Br)cc3)o2)c2cccnc12", "inactive"],
  ["Cc1ccc(/C=C/CC(=O)Nc2ccc(C(=O)Nc3ccc(F)cc3N)nc2)cn1", "inactive"],
  ["COc1ccc(C(=O)n2cc(C=O)c3ccccc32)cc1", "inactive"],
  ["CCN(CC)CCCC(C)NCC(=O)NC(c1ccc2c(c1)OCO2)c1cc(Cl)c2cccnc2c1O (stereo not drawn)", "inactive"],
  ["COC[C@@]1(C)CC[C@]2(C)CC[C@]3(C)C(=CC[C@@H]4[C@@]5(C)CCCNC(C)(C)[C@@H]5CC[C@]43C)C2C1 (stereo partly drawn)", "inactive"]
]}

### Prompt Record request — test call for `Oc1ccc(CSc2nnc(-c3ccccc3)n2-c2ccccc2)c2cccnc12`
### Response inactive

### Prompt Record request — test call for `Cc1[nH]nc2ccc(-c3nc4cnc(N5CCN(C)CC5)cn4c3Nc3ccc(F)cc3Br)cc12`
### Response inactive

### Prompt Record request — test call for `N#Cc1c(-c2ccccc2)cc(-c2c[nH]c3ccccc23)nc1-c1c[nH]c2ccccc12`
### Response inactive

### Prompt Record request — test call for `Cn1ccnc1C(=O)/C=C/c1ccc(C(=O)Nc2ccc(NC(=O)CCNC(=O)c3csc(Br)n3)cc2)cc1`
### Response inactive

### Prompt Record request — test call for `O=C(O)CNS(=O)(=O)c1ccc(Oc2ccc(S(=O)(=O)NCC(=O)O)cc2)cc1`
### Response inactive

### Prompt Record request — test call for `O=C(Nc1ccc(Cl)cc1)Nc1nc2ccc([N+](=O)[O-])cc2s1`
### Response inactive

### Prompt Record request — test call for `CC(C)=CCc1c(O)c(CC=C(C)C)c2c(c1O)C(=O)C1=C[C@@H]3C[C@H]4C(C)(C)O[C@@](C/C=C(\C)C(=O)O)(C3=O)[C@@]14O2`
### Response active

### Prompt Record request — test call for `COc1cc(/C=N/Nc2ccnc3cc(Cl)ccc23)cc(OC)c1O`
### Response active
